- System: THRa homodimer (NR concentration 90 nM)
- method.description: PBM binding z-score (relative to random genomic background probes); higher = stronger binding; sequences stand for … in GC…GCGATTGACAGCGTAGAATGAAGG
Threshold check on PBM binding z-score: at or above 1 gives true (1), strictly below gives false (0).

Problem: Test whether the sequence CGTCCATGGTCAAAGGTCAGTGAAGAGATGACGG records PBM binding z-score of 1 or higher.
Solution: false (0)

Problem: Test whether the sequence TCTAGATGGTCAAAGGTCACACACTCGAAATGCG records PBM binding z-score of 1 or higher.
Solution: true (1)

Problem: Test whether the sequence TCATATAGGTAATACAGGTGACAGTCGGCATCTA records PBM binding z-score of 1 or higher.
Solution: false (0)

Problem: Test whether the sequence CTCGAAAGGTCGGTTGAGGTGAGTTTACGGATAA records PBM binding z-score of 1 or higher.
Solution: true (1)

Problem: Test whether the sequence TCTAGTTGGTCACTGAGGTCACACACGACGGGTA records PBM binding z-score of 1 or higher.
Solution: true (1)

Problem: Test whether the sequence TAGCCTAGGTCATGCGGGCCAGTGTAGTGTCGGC records PBM binding z-score of 1 or higher.
Solution: false (0)

Problem: Test whether the sequence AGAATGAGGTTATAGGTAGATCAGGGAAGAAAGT records PBM binding z-score of 1 or higher.
Solution: true (1)

Problem: Test whether the sequence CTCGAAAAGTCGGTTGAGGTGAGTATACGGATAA records PBM binding z-score of 1 or higher.
Solution: true (1)

Problem: Test whether the sequence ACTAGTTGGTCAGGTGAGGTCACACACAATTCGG records PBM binding z-score of 1 or higher.
Solution: true (1)

Problem: Test whether the sequence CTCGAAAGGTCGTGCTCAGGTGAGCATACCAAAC records PBM binding z-score of 1 or higher.
Solution: true (1)

Problem: Test whether the sequence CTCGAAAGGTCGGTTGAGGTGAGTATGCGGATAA records PBM binding z-score of 1 or higher.
Solution: true (1)

Problem: Test whether the sequence GCTATTAGTTAAAAGGGCAACCGAATGATTCTCG records PBM binding z-score of 1 or higher.
Solution: false (0)

====

- Test system: PPARg:RXRa 90nM:30nM, anti-RXR (NR concentration 90 nM, RXRa partner concentration 30 nM)
- method.description: PBM binding z-score (relative to random genomic background probes); higher = stronger binding; sequences stand for … in GC…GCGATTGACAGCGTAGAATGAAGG
measured.attribute: PBM binding z-score
Form rule: numeric answer, no unit written next to it.

The sequence GATACAGGGTCAAGGCCAGAGTGCGCGTATTGAT showed PBM binding z-score equal to 4

The sequence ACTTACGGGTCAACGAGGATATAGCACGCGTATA showed PBM binding z-score equal to 3.85

The sequence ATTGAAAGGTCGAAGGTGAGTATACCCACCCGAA showed PBM binding z-score equal to 5.09

The sequence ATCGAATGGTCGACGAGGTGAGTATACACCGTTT showed PBM binding z-score equal to -0.347

The sequence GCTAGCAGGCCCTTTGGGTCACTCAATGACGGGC showed PBM binding z-score equal to 0.116

The sequence AGAATGAGGTTAAGGTCAGGGAAACAGAATACAT showed PBM binding z-score equal to 4.29

The sequence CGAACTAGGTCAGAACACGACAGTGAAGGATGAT showed PBM binding z-score equal to 3.56

The sequence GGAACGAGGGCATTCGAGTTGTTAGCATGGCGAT showed PBM binding z-score equal to 0.0631

The sequence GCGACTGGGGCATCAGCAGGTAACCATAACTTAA showed PBM binding z-score equal to 0.285

The sequence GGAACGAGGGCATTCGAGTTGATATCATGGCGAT showed PBM binding z-score equal to 0.448

The sequence GCAGACAGGTGAAACGCAGTTAACTCAGGGTGGC showed PBM binding z-score equal to -0.452

The sequence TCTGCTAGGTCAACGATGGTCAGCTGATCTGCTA showed PBM binding z-score equal to 2.66

====

Kindly supply the reported PBM binding z-score values for the records listed here.
- Tested on: RXRa DBDmut IVT, anti-RXR (DBD mutation: RXRa K156A/R161A, NR concentration 90 nM)
- method.description: PBM binding z-score (relative to random genomic background probes); higher = stronger binding; sequences stand for … in GC…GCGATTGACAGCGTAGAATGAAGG
Form rule: numeric answer, no unit written next to it.

The sequence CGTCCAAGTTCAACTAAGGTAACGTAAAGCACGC showed PBM binding z-score equal to 4.54

The sequence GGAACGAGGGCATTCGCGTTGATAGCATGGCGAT showed PBM binding z-score equal to 2.75

The sequence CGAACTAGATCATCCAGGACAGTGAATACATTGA showed PBM binding z-score equal to 0.701

The sequence CGAACTAGGTCATTGACAGGAAAGTGAATAGTAA showed PBM binding z-score equal to 2.19

The sequence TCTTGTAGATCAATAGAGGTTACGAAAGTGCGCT showed PBM binding z-score equal to 0.65

The sequence TAGCCCAGGTCATGGGCCAGTATACCACGCGAAC showed PBM binding z-score equal to 0.576

The sequence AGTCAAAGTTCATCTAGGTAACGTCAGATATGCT showed PBM binding z-score equal to 4.83

The sequence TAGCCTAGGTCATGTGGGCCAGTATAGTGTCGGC showed PBM binding z-score equal to 0.816

The sequence AGACCAAGGTGATCGTGAGGTCGTTGATACTAAC showed PBM binding z-score equal to 0.408

The sequence AGACAAAGTTCATCTAGGTAACGTAAGATATGCT showed PBM binding z-score equal to 5.05

The sequence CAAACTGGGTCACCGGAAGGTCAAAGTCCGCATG showed PBM binding z-score equal to 0.907

The sequence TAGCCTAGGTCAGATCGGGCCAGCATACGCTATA showed PBM binding z-score equal to -0.834

The sequence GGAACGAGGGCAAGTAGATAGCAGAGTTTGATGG showed PBM binding z-score equal to 1.7

The sequence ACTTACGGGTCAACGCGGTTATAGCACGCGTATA showed PBM binding z-score equal to 1.88

The sequence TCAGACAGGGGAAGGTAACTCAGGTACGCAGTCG showed PBM binding z-score equal to 1.16

The sequence AATACAGGGTCAGTAGGCCAGAGTAGGTACGAAT showed PBM binding z-score equal to 1.86

The sequence CTCGAAGGGTCGGTTGAGGTGAGTATACGGATAA showed PBM binding z-score equal to 0.489

The sequence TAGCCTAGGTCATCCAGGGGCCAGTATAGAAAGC showed PBM binding z-score equal to 0.731

The sequence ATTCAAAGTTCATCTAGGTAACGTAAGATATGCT showed PBM binding z-score equal to 4.6

The sequence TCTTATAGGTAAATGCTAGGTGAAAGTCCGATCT showed PBM binding z-score equal to 1.88

The sequence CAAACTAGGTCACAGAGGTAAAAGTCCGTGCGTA showed PBM binding z-score equal to 1.95

The sequence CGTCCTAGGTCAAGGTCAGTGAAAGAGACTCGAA showed PBM binding z-score equal to 2.02

The sequence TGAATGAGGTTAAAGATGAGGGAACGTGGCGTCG showed PBM binding z-score equal to 1.33

The sequence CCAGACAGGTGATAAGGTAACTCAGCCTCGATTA showed PBM binding z-score equal to 0.284

The sequence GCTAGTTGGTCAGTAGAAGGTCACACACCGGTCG showed PBM binding z-score equal to 0.334

The sequence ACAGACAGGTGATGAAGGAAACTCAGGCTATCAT showed PBM binding z-score equal to -0.0618

====

- Tested on: PPARg DBDmut:RXRa IVT, anti-PPARg (DBD mutation: PPARg1 K132A/R137A, NR concentration 270 nM, RXRa partner concentration 90 nM)
- method.description: PBM binding z-score (relative to random genomic background probes); higher = stronger binding; sequences stand for … in GC…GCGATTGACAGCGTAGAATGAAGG
Kindly supply the reported PBM binding z-score values for the records listed here.

The sequence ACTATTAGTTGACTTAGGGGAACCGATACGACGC showed PBM binding z-score equal to 1.51

The sequence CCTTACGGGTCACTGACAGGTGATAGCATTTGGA showed PBM binding z-score equal to 0.64

The sequence GCGACTGGCGCATCAGCAGGTTACCATAACTTAA showed PBM binding z-score equal to -1.28

The sequence GCATATAGGTAATACAAGGTGAAAGACCGATTGT showed PBM binding z-score equal to 0.445

The sequence TCGAGTAGGTTATTCGGGGCATTCAGCCAACATA showed PBM binding z-score equal to -0.276

The sequence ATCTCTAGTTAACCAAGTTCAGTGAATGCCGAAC showed PBM binding z-score equal to 0.59

The sequence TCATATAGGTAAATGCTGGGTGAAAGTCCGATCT showed PBM binding z-score equal to 0.471

The sequence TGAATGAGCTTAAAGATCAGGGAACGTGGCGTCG showed PBM binding z-score equal to -0.0715

The sequence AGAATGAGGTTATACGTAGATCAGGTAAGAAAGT showed PBM binding z-score equal to 1.26

The sequence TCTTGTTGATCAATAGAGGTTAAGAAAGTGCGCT showed PBM binding z-score equal to 0.422

The sequence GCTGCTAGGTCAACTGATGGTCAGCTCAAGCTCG showed PBM binding z-score equal to -0.00259

The sequence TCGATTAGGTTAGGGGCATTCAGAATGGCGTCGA showed PBM binding z-score equal to -0.691

The sequence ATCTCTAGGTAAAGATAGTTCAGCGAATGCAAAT showed PBM binding z-score equal to 0.72

The sequence CCTACTGGGCCAATCAGAGGTCATTGATCATATG showed PBM binding z-score equal to 1.25

The sequence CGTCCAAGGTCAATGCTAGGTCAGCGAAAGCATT showed PBM binding z-score equal to 0.86

The sequence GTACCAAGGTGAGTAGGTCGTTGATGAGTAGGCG showed PBM binding z-score equal to -0.145

The sequence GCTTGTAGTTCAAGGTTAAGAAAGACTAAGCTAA showed PBM binding z-score equal to 0.1

The sequence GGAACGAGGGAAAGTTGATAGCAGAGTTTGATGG showed PBM binding z-score equal to -0.287

The sequence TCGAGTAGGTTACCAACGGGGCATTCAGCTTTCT showed PBM binding z-score equal to -0.246

The sequence TCTTGTAGATCAACCAGGTTAAGAAAGCCTGAGT showed PBM binding z-score equal to -0.047

The sequence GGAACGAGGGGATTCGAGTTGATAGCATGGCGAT showed PBM binding z-score equal to -1.62

The sequence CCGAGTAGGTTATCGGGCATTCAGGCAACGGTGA showed PBM binding z-score equal to -1.04

The sequence CCTACTGGGCCATCAGGTCAGTGATATCAACGTT showed PBM binding z-score equal to -0.457

The sequence TCTTGTAGATCAAAGGTTAAAAAAGCCGAAGCCT showed PBM binding z-score equal to 0.744

The sequence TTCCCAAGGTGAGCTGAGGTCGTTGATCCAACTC showed PBM binding z-score equal to -1.17

The sequence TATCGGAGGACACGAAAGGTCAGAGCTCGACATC showed PBM binding z-score equal to 0.89
